The measurements presented in this section are drawn from DBAASP.

As an illustration, consider measured MIC for compounds on Candida albicans ATCC 10231.

structure-string	observed-value
CC(C)C[C@H](NC(=O)CNC(=O)[C@H](Cc1ccc(O)cc1)NC(=O)[C@H](Cc1cnc[nH]1)NC(=O)[C@@H]1CCCN1C(=O)[C@H](CC(C)C)NC(=O)[C@H](CCC(=O)O)NC(=O)[C@H](Cc1ccccc1)NC(=O)[C@H](C)NC(=O)[C@H](CO)NC(=O)[C@@H](N)CCCCN)C(=O)O	> 500 µM
C[C@H](N)C(=O)N[C@@H](C)C(=O)N[C@@H](CCCN=C(N)N)C(=O)N[C@@H](CCCN=C(N)N)C(=O)N[C@@H](C)C(=O)N[C@@H](C)C(=O)N[C@@H](CCCN=C(N)N)C(=O)N[C@@H](CCCN=C(N)N)C(=O)N[C@@H](C)C(=O)N[C@@H](C)C(=O)N[C@@H](CCCN=C(N)N)C(=O)N[C@@H](CCCN=C(N)N)C(N)=O	> 362 µM

Moving on to another compound below.
Request: Report MIC under test system Candida albicans ATCC 10231 for CC[C@H](C)[C@H](NC(=O)[C@H](CC(N)=O)NC(=O)[C@@H](NC(=O)[C@H](C)N)C(C)C)C(=O)N1CCC[C@H]1C(=O)N[C@@H](Cc1ccccc1)C(=O)N[C@@H](CCCCN)C(=O)N[C@H](C(=O)N[C@@H](Cc1cnc[nH]1)C(=O)N[C@@H](Cc1ccccc1)C(=O)N[C@@H](CCCN=C(N)N)C(=O)N[C@H]1CSSC[C@@H](C(=O)O)NC(=O)[C@H](Cc2ccccc2)NC(=O)[C@H](C)NC(=O)[C@H](C)NC(=O)[C@H](CCCCN)NC1=O)C(C)C .
Result: > 512 µM
